# credit: PubChem BioAssay (NCI)

- Test system: SK-MEL-2 melanoma
- experiment: NCI tumour cell line growth inhibition, 48 h
measured-endpoint: TGI

[[record]]
molecule = "CCP(=S)(CC)CCl"
measured_endpoint = "TGI"
experimental_value = "> 100 µM"

[[record]]
molecule = "Cc1ccc(NC(=S)C#N)cc1Cl"
measured_endpoint = "TGI"
experimental_value = "> 100 µM"

[[record]]
molecule = "Cc1ccc(NC(=O)CC/C(CC(=O)C(C)(C)C)=N/Nc2nnc(C)n2N)cc1C"
measured_endpoint = "TGI"
experimental_value = "> 100 µM"

[[record]]
molecule = "C=C1C[C@]23CC[C@@H]4C(CO)(CO)CC(=O)C[C@]4(C)[C@@H]2CC[C@H]1C3"
measured_endpoint = "TGI"
experimental_value = "> 100 µM"

[[record]]
molecule = "O=C1C=CC(=O)N1n1c(Cc2ccccc2)n[nH]c1=O"
measured_endpoint = "TGI"
experimental_value = "> 100 µM"

[[record]]
molecule = "O=C(Nc1cccc(-n2cc(-c3ccncc3)c(-c3ccc(Cl)c(O)c3)n2)c1)Nc1cccc(C(F)(F)F)c1"
measured_endpoint = "TGI"
experimental_value = "10.8 µM"

[[record]]
molecule = "CCCCC/C=C/C(=O)CCc1ccc(O)c(OC)c1"
measured_endpoint = "TGI"
experimental_value = "28.8 µM"

[[record]]
molecule = "Cc1ccc2nc3n(c2c1)C(c1c(F)cccc1F)SC3 (centres undefined)"
measured_endpoint = "TGI"
experimental_value = "> 100 µM"

[[record]]
molecule = "C[C@]12CC[C@@H]3c4ccc(O)cc4CC[C@H]3[C@@H]1CC[C@@H]2OC(=O)CCC1CCCC1"
measured_endpoint = "TGI"
experimental_value = "> 56.4 µM"

[[record]]
molecule = "COc1c(-c2nc3nc(N4CCN(C)CC4)ccc3[nH]2)cc(OC)c2c1nc(CO)n2C"
measured_endpoint = "TGI"
experimental_value = "> 100 µM"

[[record]]
molecule = "O=C(O)CCc1nc2c(n1Cc1ccccc1)C(=O)c1ccccc1C2=O"
measured_endpoint = "TGI"
experimental_value = "78.1 µM"

[[record]]
molecule = "CC1CCC(C(C)C2C(O)CC3C4CC=C5CC(O)CCC5(C)C4CCC32C)NC1 (centres undefined)"
measured_endpoint = "TGI"
experimental_value = "> 100 µM"

[[record]]
molecule = "C[C@]12CCc3nonc3C1CC[C@@H]1C2CC[C@]2(C)C(=O)/C(=N\\O)CC12 (some centres undefined)"
measured_endpoint = "TGI"
experimental_value = "> 100 µM"

[[record]]
molecule = "CC(C)=CCc1c(O)c(CC2=C(O)C(C)=C(O)C(CC=C(C)C)(C(=O)C(C)C)C2=O)c(O)c(C(=O)C(C)C)c1O (centres undefined)"
measured_endpoint = "TGI"
experimental_value = "> 31.4 µM"

[[record]]
molecule = "COC(=O)C(C(=O)C(=O)Nc1ccc(Br)cc1)c1nc2ccc(Cl)cc2[nH]c1=O (centres undefined)"
measured_endpoint = "TGI"
experimental_value = "> 100 µM"

[[record]]
molecule = "COc1cc([C@@H]2c3cc4c(cc3[C@@H](NC(=O)c3cccc(N)c3)C3COC(=O)[C@@H]32)OCO4)cc(OC)c1O (some centres undefined)"
measured_endpoint = "TGI"
experimental_value = "10.1 µM"

[[record]]
molecule = "CCOC(=O)NC(=O)c1cn(-c2ccc(CCOC(=O)NCCCCCCNC(=O)OCCc3ccc(-n4c(=O)[nH]cc(C(=O)NC(=O)OCC)c4=O)cc3)cc2)c(=O)[nH]c1=O"
measured_endpoint = "TGI"
experimental_value = "> 100 µM"

[[record]]
molecule = "COC(=O)c1c2c(c(C)[n+]([O-])c1C)C(=O)C(NCc1cccc(Cl)c1)=CC2=O"
measured_endpoint = "TGI"
experimental_value = "4.6 µM"

[[record]]
molecule = "Cc1noc(NS(=O)(=O)c2ccc(NC(=O)c3ccc4nc5ccccc5c(Nc5ccc(S(=O)(=O)Nc6onc(C)c6C)cc5)c4c3)cc2)c1C"
measured_endpoint = "TGI"
experimental_value = "> 100 µM"

